Here, each record is paired with measured apparent KD of MS2 coat protein data.
System: MS2 coat protein
protocol-summary: apparent KD of MS2 coat protein; higher = weaker reporter binding
condition-details: Eterna round: R107; input ligand: arginine 13.2 mM
Please don't drop the unit; write it after the number.

Example results:
residues	readout-name	assay-result
UGCGUACAUGAGGAUCACCCAUGUAUAGAUACCAGUCACCCAUGUGGCCCUUGGCAGCUAACAUGAGGAUCACUACAUGAGGAUC [Exclusion Theophylline A 3]	apparent KD of MS2 coat protein	24.3 nM
UGUAUGGACUGAAGGAGCGGAAAAUAAAUCUGAGGAUCACCCAGGUAAUAGGCGAAAGCCAUCCAGGUAGGUCGCAGUCCAUACU	apparent KD of MS2 coat protein	56.9 nM

INPUT: Any idea what its apparent KD of MS2 coat protein is? The sequence is GUGGAGACAUGAGAUACCAGUCUCUUUAACAUGAGGAUCACCCAUGUAAUGCUCCUCGGAGACCCUUGGCAGCUCAGUAUGAUGA [#09 Exclusion-TheophyllineB]
OUTPUT: 32.2 nM
